A collection of compounds and their measured IC50
Tested on: CYP1A2, 2C9, 2C19, 2D6, and 3A4
Conditions: microsomes

NC(=O)c1ccc(C(=O)Nc2ccc(O)cc2O)cn1 | > 5 µM
COc1cccc(NC(=O)c2ccc(C(N)=O)cn2)c1O | > 5 µM

Now for a further compound.
(Q) # return recorded IC50 for input `NC(=O)c1ccc(C(=O)Nc2ccc(O)c3ccccc23)cn1`
(A) > 5 µM

---

Target: SIRT1 (Homo sapiens, UniProt Q96EB6)
Construct: purchased Cisbio Bioassays
Sequence (Q96EB6 whole entry): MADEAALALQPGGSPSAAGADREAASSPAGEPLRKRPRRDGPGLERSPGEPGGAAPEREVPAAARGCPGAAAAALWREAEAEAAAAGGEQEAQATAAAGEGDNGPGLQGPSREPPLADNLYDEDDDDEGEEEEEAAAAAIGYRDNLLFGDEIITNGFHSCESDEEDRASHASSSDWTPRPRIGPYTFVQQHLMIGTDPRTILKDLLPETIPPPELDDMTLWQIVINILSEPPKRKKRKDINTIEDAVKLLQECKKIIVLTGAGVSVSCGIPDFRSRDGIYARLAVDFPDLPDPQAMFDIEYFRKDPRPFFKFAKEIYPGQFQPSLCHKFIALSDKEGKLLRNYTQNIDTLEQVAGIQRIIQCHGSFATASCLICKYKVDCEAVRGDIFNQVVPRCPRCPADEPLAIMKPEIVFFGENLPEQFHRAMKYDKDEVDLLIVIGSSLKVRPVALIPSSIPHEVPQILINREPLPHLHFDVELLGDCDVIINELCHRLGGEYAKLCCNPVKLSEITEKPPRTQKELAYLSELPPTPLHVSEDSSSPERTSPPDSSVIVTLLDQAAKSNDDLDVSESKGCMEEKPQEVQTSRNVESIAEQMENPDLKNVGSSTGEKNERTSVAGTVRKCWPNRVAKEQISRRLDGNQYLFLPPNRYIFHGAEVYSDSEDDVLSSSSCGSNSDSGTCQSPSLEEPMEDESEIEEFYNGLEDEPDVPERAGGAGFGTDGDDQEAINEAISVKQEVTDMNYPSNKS
Test: CISBIO HTRF SIRT1 assay of SIRT1 peptide deacetylation, modified by excluding NAD+
Assay type: biochemical
Conditions: SIRT1 activation, no NAD+ cofactor, single experiment of FIGS. 1-4; read-out: AC50 in μM, n = 1
# AC50 per record follows
Write it as a number; the unit µM goes unstated.

NC(=O)c1ccc(C(=O)Nc2ccc(O)cc2O)cn1 [Compound 9] | 112
NC(=O)c1cccc(C(=O)Nc2ccc(O)cc2O)n1 [Compound 13] | 105
NC(=O)c1ccc(C(=O)Nc2ccccc2O)nc1 [Compound 2] | 316

// below: AC50 requested for another compound
(Q) State recorded AC50 with SIRT1 (Homo sapiens, UniProt Q96EB6), entry NC(=O)c1ccc(C(=O)Nc2ccc(O)c3ccccc23)cn1 [Compound 11] , no comment.
(A) 3.3

---

Experiment: Metabolic stability in rat hepatocytes
Type: in vitro ADME
Conditions: rat hepatocytes, hepatic intrinsic clearance
EXPERIMENTAL READOUT: CLint scaled
Please give the number followed by its unit.

(Q) Read the entry NC(=O)c1ccc(C(=O)Nc2ccc(O)cc2O)nc1 [Compound 3] and write its reported CLint scaled.
(A) 53 mL/min/kg

---

Assay: Solubility in DMSO stock solution
Conditions: solubility in DMSO before further dilution with water to 1% DMSO
EXPERIMENTAL READOUT: Concentration of compound in DMSO stock solution
Number first, unit second.

Would you please look over these solved cases?
NC(=O)c1cc(C(=O)Nc2ccc(O)cc2)c[nH]1 [Compound 16] | 200000 µM
NC(=O)c1ccc(C(=O)Nc2cccc3c(O)cccc23)nc1 [Compound 5] | 20000 µM
NC(=O)c1ccc2cc(C(=O)Nc3ccc(O)cc3)ccc2n1 [Compound 14] | 200000 µM
NC(=O)c1ccc(C(=O)Nc2ccc(O)c3ccccc23)nc1 [Compound 4] | 20000 µM

Then this compound:
(Q) Please look at this compound and report its Concentration of compound in DMSO stock solution: NC(=O)c1cccc(C(=O)Nc2ccc(O)cc2O)n1 [Compound 13]
(A) 20000 µM

Source of measurements: patent US20140329854A1
